system: PC-3 prostate; test: NCI tumour cell line growth inhibition, 48 h
assay-readout: TGI (µM)

CCCCCCC#CC#Cc1cccc(=O)o1; 8.36
COC(=O)C[C@H](COCc1ccccc1)NC(=O)C[C@H](COCc1ccccc1)NC(=O)OC(C)(C)C; 77.6
CCCCCCCCCCCCCC(=O)C(C)N (stereo not drawn); 6.05
COc1ccc(CC(NC(=O)[C@H](C)NC(=O)CN2CCOCC2)C(=O)N[C@@H](Cc2ccccc2)C(=O)[C@@]2(C)CO2)cc1 (stereo partly drawn); 0.631

----------
TGI for assorted molecules
tested on: COLO 205 colon; assay: NCI tumour cell line growth inhibition, 48 h
assay-readout: TGI

C/C(=N\Nc1nc2ccccc2o1)c1cc(C)ncn1; > 40.8 µM
COc1cc(Cl)c2c3c(c(C(=O)c4ccccc4)oc13)CCC2; > 100 µM
Cc1c2n(c3ccccc13)CC1CON(C)C21 (centres undefined); > 100 µM
CC(O)(CNS(=O)(=O)c1ccccc1)c1ccccc1 (centres undefined); > 100 µM
